target: wild-type LRRK2 (Homo sapiens, UniProt Q5S007); construct: DNA tag for qPCR detection (not a peptide; the protein part that carries it is not described); made in house; host or cells: HEK 293 cells (the same paragraph also describes T7 phage grown in E. coli BL21); assay: Inhibitory activity against LRRK2: competition binding to ligand-affinity beads, DNA-tagged kinase quantitated by qPCR; settings: 50 nM compound; % of ctrl; read-out: LRRK2(WT) Remaining kinase activity(%) at 50 nM
Sequence (Q5S007 970-2527): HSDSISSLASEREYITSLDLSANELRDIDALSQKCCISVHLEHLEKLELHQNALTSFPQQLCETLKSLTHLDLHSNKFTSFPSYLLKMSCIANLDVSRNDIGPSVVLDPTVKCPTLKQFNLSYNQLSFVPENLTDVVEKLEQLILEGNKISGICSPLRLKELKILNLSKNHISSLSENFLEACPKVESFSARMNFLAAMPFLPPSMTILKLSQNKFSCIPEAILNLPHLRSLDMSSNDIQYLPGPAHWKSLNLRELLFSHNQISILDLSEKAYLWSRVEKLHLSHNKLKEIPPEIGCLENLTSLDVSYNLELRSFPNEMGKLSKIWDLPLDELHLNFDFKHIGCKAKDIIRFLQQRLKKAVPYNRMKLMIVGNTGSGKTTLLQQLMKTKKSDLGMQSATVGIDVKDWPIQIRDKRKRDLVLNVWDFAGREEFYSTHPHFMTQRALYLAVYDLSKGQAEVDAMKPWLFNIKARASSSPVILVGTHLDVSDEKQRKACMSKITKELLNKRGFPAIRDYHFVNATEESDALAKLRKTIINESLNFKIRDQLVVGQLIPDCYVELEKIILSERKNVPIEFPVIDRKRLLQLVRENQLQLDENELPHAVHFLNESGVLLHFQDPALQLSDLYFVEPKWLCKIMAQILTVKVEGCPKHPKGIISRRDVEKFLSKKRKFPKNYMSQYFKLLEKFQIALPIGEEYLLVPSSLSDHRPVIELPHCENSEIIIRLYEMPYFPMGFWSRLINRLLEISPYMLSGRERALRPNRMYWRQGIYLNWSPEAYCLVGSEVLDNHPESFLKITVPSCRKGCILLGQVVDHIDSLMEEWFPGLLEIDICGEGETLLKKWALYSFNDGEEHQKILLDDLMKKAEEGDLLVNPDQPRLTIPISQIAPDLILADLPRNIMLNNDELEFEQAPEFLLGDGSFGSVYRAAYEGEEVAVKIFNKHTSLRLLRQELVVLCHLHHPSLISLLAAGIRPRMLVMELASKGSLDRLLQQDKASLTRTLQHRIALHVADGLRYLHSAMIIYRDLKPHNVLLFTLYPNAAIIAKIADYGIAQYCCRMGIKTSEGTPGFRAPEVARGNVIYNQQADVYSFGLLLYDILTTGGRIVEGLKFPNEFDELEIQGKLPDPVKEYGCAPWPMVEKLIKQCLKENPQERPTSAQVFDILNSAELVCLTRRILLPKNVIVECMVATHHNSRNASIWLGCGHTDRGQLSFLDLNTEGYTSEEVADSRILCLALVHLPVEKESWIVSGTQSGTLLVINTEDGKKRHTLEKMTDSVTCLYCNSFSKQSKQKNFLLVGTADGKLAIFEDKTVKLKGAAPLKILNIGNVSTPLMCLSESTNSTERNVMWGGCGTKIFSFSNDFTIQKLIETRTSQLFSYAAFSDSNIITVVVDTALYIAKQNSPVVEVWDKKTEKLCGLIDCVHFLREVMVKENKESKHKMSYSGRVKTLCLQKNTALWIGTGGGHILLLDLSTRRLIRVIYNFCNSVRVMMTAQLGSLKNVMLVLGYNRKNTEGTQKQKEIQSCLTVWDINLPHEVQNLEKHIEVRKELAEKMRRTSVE
recorded.metric: remaining binding at 0.05 µM

compound	recorded.metric	result.value
COc1cc(C(=O)N2C[C@H]3CC[C@@H](C2)O3)ccc1Nc1ncc(Cl)c(-c2cnn(C(C)C)c2)n1	remaining binding at 0.05 µM	< 30%
COc1cc(C(=O)NN2C(C)CCCC2C)ccc1Nc1ncc(Cl)c(-c2cnn(C(C)C)c2)n1 (stereo not shown)	remaining binding at 0.05 µM	< 30%
COc1cc(C(=O)Nc2cccc(S(N)(=O)=O)c2)ccc1Nc1ncc(Cl)c(-c2cnn(C(C)C)c2)n1	remaining binding at 0.05 µM	< 30%

Now look at this entry.
Entry `CCOC(=O)CCNC(=O)c1ccc(Nc2ncc(Cl)c(-c3cnn(C(C)C)c3)n2)c(OC)c1` has what remaining binding at 0.05 µM?
< 50%

###

biological target: wild-type LRRK2 (Homo sapiens); construct: DNA tag for qPCR detection (not a peptide; the protein part that carries it is not described); made in house; host or cells: HEK 293 cells (the same paragraph also describes T7 phage grown in E. coli BL21); assay: Inhibitory activity against LRRK2: competition binding to ligand-affinity beads, DNA-tagged kinase quantitated by qPCR; settings: 10 nM compound; % of ctrl; read-out: LRRK2(WT) Remaining kinase activity(%) at 10 nM
recorded.metric: remaining binding at 0.01 µM

See these solved cases before continuing.
molecule	result.value
COc1cc(C(=O)N2[C@@H]3CC[C@H]2COC3)ccc1Nc1ncc(Cl)c(-c2cnn(C(C)C)c2)n1	≥ 50%
COc1cc(C(=O)NC2CCN(C)CC2)ccc1Nc1ncc(Cl)c(-c2cnn(C(C)C)c2)n1	< 50%

Returns the measured remaining binding at 0.01 µM for the input molecule. Input: `COc1cc(C(=O)N2CCC(N3CCCC3)CC2)ccc1Nc1ncc(Cl)c(-c2cnn(C(C)C)c2)n1`
< 50%

Subsequent entry: `COc1cc(C(=O)Nc2cccc(S(N)(=O)=O)c2)ccc1Nc1ncc(Cl)c(-c2cnn(C(C)C)c2)n1`
≥ 50%

Entry `COc1cc(C(=O)N2CCN(C)CC2)ccc1Nc1ncc(Cl)c(-c2cnn(C(C)C)c2)n1` please
< 30%

What would you report for `COc1cc(C(=O)N(C)C)ccc1Nc1ncc(Cl)c(-c2cnn(C(C)C)c2)n1` ?
≥ 50%

###

biological target: wild-type LRRK2 (Homo sapiens); construct: DNA tag for qPCR detection (not a peptide; the protein part that carries it is not described); made in house; host or cells: HEK 293 cells (the same paragraph also describes T7 phage grown in E. coli BL21); experiment: Inhibitory activity against LRRK2: competition binding to ligand-affinity beads, DNA-tagged kinase quantitated by qPCR; details: 100 nM compound; % of ctrl; read-out: Remaining kinase activity(%) at 100 nM LRRK2(WT)
recorded.metric: remaining binding at 0.1 µM

compound	remaining binding at 0.1 µM
COc1cc(C(=O)NC(C)(C)CO)ccc1Nc1ncc(Cl)c(-c2cnn(C)c2)n1 [Compound 24]	< 30%
COc1cc(C(=O)N2CC(N3CCOCC3)C2)ccc1Nc1ncc(Cl)c(-c2cnn(C)c2)n1 [Compound 43]	< 10%
COc1cc(C(=O)N2CCC(N3CCN(C)CC3)CC2)ccc1Nc1ncc(C(F)(F)F)c(-c2cnn(C)c2)n1 [Compound 31]	< 10%

Kindly review the next compound as well.
Fill in: remaining binding at 0.1 µM of COc1cc(C(=O)N2CCN(C3COC3)CC2)ccc1Nc1ncc(Cl)c(-c2cnn(C)c2)n1 [Compound 50] is ___
< 10%
